# experimental_target: GPIb (Homo sapiens, UniProt P07359)
# Construct: endogenous in cells; host or cells: fresh or formalin-fixed platelets
# Sequence (P07359 17-652): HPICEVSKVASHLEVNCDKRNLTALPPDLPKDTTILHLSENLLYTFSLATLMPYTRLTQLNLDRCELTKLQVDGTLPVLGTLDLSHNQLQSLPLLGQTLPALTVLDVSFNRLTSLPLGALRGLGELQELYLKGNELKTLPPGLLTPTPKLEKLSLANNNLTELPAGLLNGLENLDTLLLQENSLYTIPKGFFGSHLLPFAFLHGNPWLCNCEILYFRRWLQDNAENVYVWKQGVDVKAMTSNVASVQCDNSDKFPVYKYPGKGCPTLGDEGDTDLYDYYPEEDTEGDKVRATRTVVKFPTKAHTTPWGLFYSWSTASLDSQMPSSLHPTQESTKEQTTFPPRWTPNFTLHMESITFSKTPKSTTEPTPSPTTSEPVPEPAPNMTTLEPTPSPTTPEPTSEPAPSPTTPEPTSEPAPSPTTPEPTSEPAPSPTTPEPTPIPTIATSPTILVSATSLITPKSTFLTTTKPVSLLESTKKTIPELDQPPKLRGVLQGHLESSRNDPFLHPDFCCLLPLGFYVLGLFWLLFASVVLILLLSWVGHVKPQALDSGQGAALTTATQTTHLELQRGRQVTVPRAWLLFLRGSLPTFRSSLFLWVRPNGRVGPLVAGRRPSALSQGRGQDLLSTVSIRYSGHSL
# Sequence (P13224 26-206 partner): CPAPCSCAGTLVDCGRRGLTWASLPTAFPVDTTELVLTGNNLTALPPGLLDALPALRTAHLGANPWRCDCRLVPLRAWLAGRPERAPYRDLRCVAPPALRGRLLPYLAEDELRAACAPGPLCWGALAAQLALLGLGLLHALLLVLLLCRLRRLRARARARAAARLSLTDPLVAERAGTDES
# Sequence (P14770 17-177 partner): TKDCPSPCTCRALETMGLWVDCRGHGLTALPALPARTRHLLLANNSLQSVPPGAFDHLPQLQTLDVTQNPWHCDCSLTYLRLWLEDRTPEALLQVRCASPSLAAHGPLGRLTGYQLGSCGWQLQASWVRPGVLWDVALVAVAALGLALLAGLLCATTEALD
# measurement_notes: Inhibition of 125I-asialo-vWF binding to fresh platelets by peptides
Where no end group is shown, it is not given here.
endpoint: IC50 (µM)
Respond numerically; units are µM and should not be typed.

Assign IC50 to the following record: RRRRRRRRGDV [(R)₈GDV]
3.5

* * *

# experimental_target: GPIb (Homo sapiens, UniProt P07359)
# Construct: endogenous in cells; host or cells: fresh or formalin-fixed platelets
# measurement_notes: Inhibition of ristocetin-induced binding of 125I-vWF to formalin-fixed platelets by peptides
# measurement_parameters: formalin-fixed platelets 1 x 10¹¹/liter, 125I-vWF 5 micrograms/ml, ristocetin 1.0 mg/ml, 30 minutes room temperature; read-out: IC₅₀ (concentration of peptide which inhibited binding by 50%)
Where no end group is shown, it is not given here.
endpoint: IC50
Give the number first and the unit second.

Below, 2 substances whose answers are already recorded.
[[record]]
substance = "RRRRRRRRGDV [(R)₈GDV]"
endpoint = "IC50"
value_measured = "6 µM"

[[record]]
substance = "KRKRKR [(KR)₃]"
endpoint = "IC50"
value_measured = "120 µM"


Here's the next entry for you.
Supply reported IC50 belonging to this substance: KRKRKRKRGDV [(KR)₄GDV]
16 µM

* * *

Consider the following substances and their measured pIC50 readings.
# experimental_target: GPIb (Homo sapiens)
# Construct: endogenous in cells; host or cells: fresh or formalin-fixed platelets
# measurement_notes: Inhibition of 125I-asialo-vWF binding to fresh platelets by peptides
# measurement_parameters: fresh platelets 1 x 10¹¹/liter, 125I-asialo-vWF 5 micrograms/ml, 30 minutes room temperature; read-out: IC₅₀ (concentration of peptide which inhibited binding by 50%)
Where no end group is shown, it is not given here.
Remember the convention: pIC50 equals -log10 of concentration in molar.

[[record]]
substance = "KRKRKRKRGDV [(KR)₄GDV]"
value_measured = 4.82


Next, consider the following substance.
Give the reported pIC50 for this substance. KRKRKR [(KR)₃]
4.64
